# key: entry, value: Emax
assay-target: ligand binding domain of human FXR (Homo sapiens (Human), UniProt Q96RI1)
Sequence (Q96RI1 262-486): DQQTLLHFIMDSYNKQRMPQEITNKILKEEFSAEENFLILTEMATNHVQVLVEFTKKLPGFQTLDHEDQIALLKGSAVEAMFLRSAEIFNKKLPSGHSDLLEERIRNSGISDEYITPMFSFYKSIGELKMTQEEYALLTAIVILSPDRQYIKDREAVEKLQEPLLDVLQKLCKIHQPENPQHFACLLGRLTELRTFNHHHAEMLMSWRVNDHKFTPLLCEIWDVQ
protocol-details: FXR ligand binding assay (LanthaScreen TR-FRET, SRC2-2 peptide recruitment)
protocol-conditions: extent of activation relative to GW4064; read-out: % Efficacy
Please state the figure in %; there is no need to write the unit.

O=C(CCc1ccc(N2C[C@@H]3C[C@H]2C[C@H]3OCc2c(-c3c(F)cccc3Cl)noc2C2CC2)c(F)c1)NS(=O)(=O)C1CCOCC1 [Compound I-235] | 176

Task: Emax lookup needed for O=C(NS(=O)(=O)C1CC1)c1ccc(N2C[C@@H]3C[C@H]2C[C@H]3OCc2c(-c3c(Cl)cccc3Cl)noc2C2CC2)cc1 [Compound I-60] , thanks.
Output: 170

Task: Query N#Cc1cc(N2C[C@@H]3C[C@H]2C[C@H]3OCc2c(-c3c(Cl)cccc3Cl)noc2C2(F)CC2)ccc1C(=O)O [Compound I-123] next
Output: 160

Task: Query O=C(O)c1ccc(N2C[C@@H]3C[C@H]2C[C@H]3OCc2c(-c3c(F)cccc3Cl)noc2C2CC2)cc1 [Compound I-118] next
Output: 145

Task: Query O=C(O)c1ccc(C2CC2)cc1N1C(=O)[C@@H]2C[C@H]1C[C@H]2OCc1c(-c2c(Cl)cccc2Cl)noc1C1CC1 [Compound I-320] next
Output: 114

Task: Query CC(C)C(=O)OCCS(=O)(=O)NC(=O)c1ccc(N2C[C@@H]3C[C@H]2C[C@H]3OCc2c(-c3c(Cl)cccc3Cl)noc2C2CC2)cc1 [Compound I-213] next
Output: 131

----------
assay-target: ligand binding domain of human FXR (Homo sapiens (Human), UniProt Q96RI1)
protocol-details: FXR ligand binding assay (LanthaScreen TR-FRET, SRC2-2 peptide recruitment)
protocol-conditions: -log EC50, concentration required to produce 50% activation
# key: entry, value: pEC50
Please give the numeric answer without any surrounding text.

Cc1cccc(C)c1-c1noc(C2CC2)c1CO[C@@H]1C[C@@H]2C[C@H]1C(=O)N2c1ccc(C(=O)O)cc1 | 7.6
O=C(O)c1ccc(N2C[C@@H]3C[C@H]2C[C@H]3OCc2c(-c3c(Cl)cccc3Cl)noc2C2CC2)c(F)c1F | 10
Cc1cc(C(=O)O)cc2sc(N3C[C@@H]4C[C@H]3C[C@H]4OCc3c(-c4c(Cl)cccc4Cl)noc3C3CC3)nc12 | 8.6
O=C(NS(=O)(=O)C1CC1)c1ccc(N2C[C@@H]3C[C@H]2C[C@H]3OC(=O)c2c(-c3c(Cl)cccc3Cl)noc2C2CC2)cc1 | 7.8
O=C(O)c1ccc(C2CC2)cc1N1C(=O)[C@@H]2C[C@H]1C[C@H]2OCc1c(-c2c(Cl)cccc2Cl)noc1C1CC1 | 7.5

Task: pEC50 lookup needed for Cc1cccc(Cl)c1-c1noc(C2CC2)c1CO[C@@H]1C[C@@H]2C[C@H]1CN2c1ccc(C(=O)O)cc1F , thanks.
Output: 8.8

Task: Query O=C(O)c1ccc(N2C[C@@H]3C[C@H]2C[C@H]3OCc2c(-c3c(F)cccc3Cl)noc2C2CC2)c(F)c1 next
Output: 8.7

----------
assay-target: ligand binding domain of human FXR (Homo sapiens (Human))
protocol-details: FXR ligand binding assay (LanthaScreen TR-FRET, SRC2-2 peptide recruitment)
protocol-conditions: -log EC50, concentration required to produce 50% activation
readout: pEC50

Some solved cases for reference:
CC1(C)CC(S(=O)(=O)NC(=O)c2ncc(N3C(=O)[C@@H]4C[C@H]3C[C@H]4OCc3c(-c4c(Cl)cccc4Cl)noc3C3CC3)cc2F)CCO1 (stereo partly drawn) | 8.4
O=C(O)c1cc([C@H]2CCOC2)c2nc(N3C[C@@H]4C[C@H]3C[C@H]4OCc3c(-c4c(Cl)cccc4Cl)noc3C3CC3)sc2c1 | 8.6

Task: pEC50 lookup needed for O=C(O)c1cc(F)c2nc(N3C[C@@H]4C[C@H]3C[C@H]4OCc3c(-c4cccc(O)c4)noc3C3CC3)sc2c1 , thanks.
Output: 6.5

Task: Query O=C(NS(=O)(=O)C1CC1)c1cc(F)c2nc(N3C[C@@H]4C[C@H]3C[C@H]4OC(=O)c3c(-c4c(Cl)cccc4Cl)noc3C3CC3)sc2c1 next
Output: 7.6
